Attribution: patent US20040116501A1

System: acetic acid-induced vascular permeability of the rat nasal mucosa
Test: Acetic acid-induced vascular permeability in Sprague-Dawley rats (nonallergic rhinitis model), Evans Blue in nasal perfusate
Format: in vivo
Conditions: test substance concentration 10 μmol/l; single 30-minute nasal perfusion before 0.1% acetic acid; rat
Consider the following compounds; for each one, report its Evans Blue content (μg/ml) in the perfusate AUC′ x ± SD.
Write the number in µg/mL without appending the unit.

Output Evans Blue content (μg/ml) in the perfusate AUC′ x ± SD of O=C(Nc1c(Cl)cncc1Cl)C(=O)c1cn(Cc2ccc(F)cc2)c2ccc(O)cc12
3.68

Report Evans Blue content (μg/ml) in the perfusate AUC′ x ± SD for CCOC(C)=O.O=C(Nc1c(Cl)cncc1Cl)C(=O)c1cn(Cc2c(F)cccc2F)c2ccc(O)cc12.O=C(Nc1c(Cl)cncc1Cl)C(=O)c1cn(Cc2c(F)cccc2F)c2ccc(O)cc12
6.03

Please look at this compound and report its Evans Blue content (μg/ml) in the perfusate AUC′ x ± SD: O=C(Nc1c(Cl)cncc1Cl)C(=O)c1cn(Cc2ccc(O)cc2)c2ccc(O)cc12
2.62

Let me know recorded Evans Blue content (μg/ml) in the perfusate AUC′ x ± SD for C[C@H]1C[C@H]2[C@@H]3CCC4=CC(=O)C=C[C@]4(C)[C@@]3(Cl)[C@@H](O)C[C@]2(C)[C@@]1(O)C(=O)CO [Beclomethasone, beclomethasone, reference compound] , thanks.
4.86
